- TEST_NAME: M. tuberculosis H37Rv growth inhibitors, H37Rv strain (AID 1626);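 also: bacteria incubated seven days before Alamar blue readout; 0% = bacteria only wells and 100% = bacteria with antibiotic wells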
- EXPERIMENTAL_SETUP: stronger effect = higher value, concentration not given here
In all, about 220,000 compounds went through this assay and about 2,000 (0.91%) were called active. Not shown: some 2% with an inconclusive outcome. Only a sample is shown. Potency and affinity values are given separately.
REPORTED_ENDPOINT: inhibition (%)
Numeric only. Scale: %

Looking for the measured inhibition of O=S(=O)(c1ccc(Cl)cc1)c1snnc1-c1ccccc1 , can you help?
-9.09

Looking for the measured inhibition of O=C(Nc1nnc(-c2cccnc2)o1)c1ccccc1Cl , can you help?
4.74

Looking for the measured inhibition of CC(C)(C)c1ccc(OCCOc2ccc(C(C)(C)C)cc2NC=O)c(NC=O)c1 , can you help?
7.57

Looking for the measured inhibition of OCCC1CN(Cc2cccnc2)CCN1CCc1ccccc1 (centres undefined) , can you help?
-0.305

Looking for the measured inhibition of COc1ccc(-n2c(O)c(C=Nc3c(C)n(C)n(-c4ccccc4)c3=O)c(=O)[nH]c2=O)cc1 , can you help?
6.56

----------
Consider the following compounds and their measured inhibition readings.
- TEST_NAME: M. tuberculosis H37Rv growth inhibitors, H37Rv strain (AID 1626);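 also: bacteria incubated seven days before Alamar blue readout; 0% = bacteria only wells and 100% = bacteria with antibiotic wells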
- EXPERIMENTAL_SETUP: stronger effect = higher value, concentration not given here
In all, about 220,000 compounds went through this assay and about 2,000 (0.91%) were called active. Another 2% or so got no clear call; they are omitted. A selection follows. Entries with a potency or affinity are not part of this list.
Numeric only. Scale: %

Look over these answered cases.
Cc1nn(C)c(C)c1NC(=O)CCl    -7.2
COc1cccc(NCc2cc3c(C(C)(C)C)nn(-c4ccccc4)c3[nH]c2=O)c1    -5.67
CCC1CCCCN1C(=O)CSc1nnc(CNC(=O)COc2ccc(Cl)cc2)o1 (centres undefined)    0.62
Cc1ccc(N=Nc2c(C)[nH]n(C(N)=S)c2=O)cc1    -3.59
S=c1[nH]nc(-c2cccnc2)n1/N=C/c1ccccc1    -12.5

Looking for the measured inhibition of Cc1[nH]n(C)c(=O)c1N=Nc1ccc(S(C)(=O)=O)cc1 , can you help?
-6.82

Looking for the measured inhibition of CCOc1ccc(S(=O)(=O)N/N=C2/CC(c3ccccc3)Oc3ccccc32)cc1 (centres undefined) , can you help?
-11.9

Looking for the measured inhibition of CCCCc1ccc(NC(=O)CC(C)(C)C)cc1 , can you help?
5.76

Looking for the measured inhibition of CCCCc1ccc(NC(=O)OC)cc1 , can you help?
58

Looking for the measured inhibition of CCOc1cccc(NCc2cc3c(C(C)(C)C)nn(-c4ccccc4)c3[nH]c2=O)c1 , can you help?
70.7

Looking for the measured inhibition of COc1cccc(NC(=O)CSc2ncnc3c2cnn3Cc2ccccc2)c1 , can you help?
-10.6

Looking for the measured inhibition of CCCC(CCC)C(=O)Nc1ccncc1 , can you help?
-10.4

Looking for the measured inhibition of CCC(CC)C(=O)Nc1cccc(-c2nc3ccccc3o2)c1 , can you help?
0.04

Looking for the measured inhibition of CCCCc1ccc(NC(=O)CC(C)=O)cc1 , can you help?
77.5

----------
- TEST_NAME: M. tuberculosis H37Rv growth inhibitors, H37Rv strain (AID 1626);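 also: bacteria incubated seven days before Alamar blue readout; 0% = bacteria only wells and 100% = bacteria with antibiotic wells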
- EXPERIMENTAL_SETUP: stronger effect = higher value, concentration not given here
Screen size: about 220,000 compounds; about 2,000 (0.91%) were called active. About 2% were inconclusive and are not listed. A selection follows. Results with a measured potency or affinity are listed apart.
Consider the following compounds and their measured inhibition readings.
Numeric only. Scale: %

Look over these answered cases.
CCCCN(C)CC(O)Cn1cc(/C=C/C(=O)c2cccs2)c2ccccc21 (configuration not stated)    32.9
COc1ccc2c(c1)S/C(=C\C(=O)c1ccncc1)N2C    0.94
Cc1cccn2c(=O)c(C=NCCO)c(Nc3ccc(Cl)cc3)nc12    2.37
CC(C)(C)n1nc2c(c1NC(=O)COc1ccc(Cl)cc1)CS(=O)(=O)C2    1.01
O=C(N/N=C/c1cccc(O)c1)c1ccccc1O    -7.64

Looking for the measured inhibition of Cc1ccc(S(=O)(=O)N(C)C)cc1NC(=S)NNC(=O)C(N)=O , can you help?
1.54

Looking for the measured inhibition of O=C(Nc1ccc(OC(F)F)c(Cl)c1)c1cccc(OC(F)F)c1 , can you help?
10.2

Looking for the measured inhibition of CC(NC(=S)Nc1ccc([N+](=O)[O-])cc1)c1ccncc1 (configuration not stated) , can you help?
2.79

Looking for the measured inhibition of COC(=O)c1cn(NC(=O)Cc2cccc(OC)c2)c(=O)c2ccccc12 , can you help?
3.66

Looking for the measured inhibition of Cc1cc(C)cc(N2C(=O)CSC2c2cccs2)c1 (configuration not stated) , can you help?
-1.33

Looking for the measured inhibition of COC(=O)NC(NC(=S)Nc1cccc(C)c1)C(Cl)(Cl)Cl (configuration not stated) , can you help?
-2.36

Looking for the measured inhibition of COc1ccc(C(=O)/C=C/c2cn(CC(O)CN3CCOCC3)c3ccccc23)cc1 (configuration not stated) , can you help?
15.2

Looking for the measured inhibition of CCOC(=O)c1sc(NC(=O)c2ccc(C)o2)nc1C , can you help?
2.75

Looking for the measured inhibition of Cc1nc(-c2ccc(Cl)cc2)sc1C1(C)CC(c2cccc([N+](=O)[O-])c2)=NO1 (configuration not stated) , can you help?
-8.66

Looking for the measured inhibition of COc1ccc(C(CCN2CCCC2)c2c(OC)cc(OC)c3c(-c4ccccc4)cc(=O)oc23)cc1 (configuration not stated) , can you help?
64.5

Looking for the measured inhibition of O=C(/C=C/c1cn(CC(O)CN2CCOCC2)c2ccccc12)c1cccs1 (configuration not stated) , can you help?
4.21

Looking for the measured inhibition of Cc1ccc(C(=O)/C=C/c2cn(CC(O)CN3CCOCC3)c3ccccc23)cc1 (configuration not stated) , can you help?
78.3

Looking for the measured inhibition of Cc1cc(CNC(=S)Nc2ccc(Br)cc2Cl)nn1C , can you help?
9.6

Looking for the measured inhibition of O=C(Nc1ccc(Cl)cn1)c1ccc(-c2ccc(Cl)c(Cl)c2)o1 , can you help?
9.55

Looking for the measured inhibition of Fc1ccc(C2C3=C(Nc4ncnn42)c2ccccc2OC3c2ccncc2)cc1 (configuration not stated) , can you help?
1.81

Looking for the measured inhibition of COC(=O)/C=C1\C(=O)N(c2nc3ccccc3s2)C(=S)N1c1ccc(F)cc1 , can you help?
3.22

Looking for the measured inhibition of Brc1ccc(C2C3=C(Nc4ncnn42)c2ccccc2OC3c2ccncc2)cc1 (configuration not stated) , can you help?
3.46

Values were extracted from PubChem BioAssay AID1626.
